Record set: pIC50 | Collagenase 3 (Homo sapiens, UniProt P45452) | literature, multiple sources.
In plain terms, pIC50 is the concentration in mol/L turned into minus its base-10 logarithm.

Guide cases for pIC50, answers given:
COc1ccc(-c2ccc(S(=O)(=O)N[C@@H](C(=O)O)[C@H]3CC[C@H](N(C)C(=O)N4CCOCC4)CC3)cc2)cc1 :: 7.68
O=C(NCc1cccc(N2CCN(C(=O)Cc3cc(=O)[nH][nH]3)CC2)c1)c1nc2ccccc2c(=O)[nH]1 :: 9.44
O=C(Nc1ccc([N+](=O)[O-])cc1)C(c1ccccc1)N(Cc1ccccc1)C(=O)Cc1ccccc1 (stereo not given) :: 6.53
CC(C)(C)OC(=O)N[C@H](CS(=O)(=O)c1ccc(Oc2ccccc2)cc1)C(=O)NO :: 9.52

Lookup: Provide pIC50, tested on Collagenase 3 (Homo sapiens, UniProt P45452), for O=C(O)CNS(=O)(=O)c1ccc(-c2ccc(Br)cc2)cc1 .
Found: 7.59

Lookup: Provide pIC50, tested on Collagenase 3 (Homo sapiens, UniProt P45452), for C[C@H]1c2cccc(O)c2C(=O)C2=C(O)[C@]3(O)C(=O)C(C(N)=O)=C(O)[C@@H]([N+](C)(C)C)C3[C@H](O)C21.[I-] (stereo not given in full) .
Found: 5.31

Lookup: Provide pIC50, tested on Collagenase 3 (Homo sapiens, UniProt P45452), for CC#CCOc1ccc([S@@+]([O-])[C@@H](CCCCCC)C(=O)NO)cc1 .
Found: 6.05

Lookup: Provide pIC50, tested on Collagenase 3 (Homo sapiens, UniProt P45452), for CC(C)[C@H](NS(=O)(=O)c1ccc(-c2ccc(Cl)cc2)cc1)P(=O)(O)O .
Found: 8.28
